- TESTED_TARGET: glucocerebrosidase (Homo sapiens, UniProt P04062)
- Sequence (P04062 40-536): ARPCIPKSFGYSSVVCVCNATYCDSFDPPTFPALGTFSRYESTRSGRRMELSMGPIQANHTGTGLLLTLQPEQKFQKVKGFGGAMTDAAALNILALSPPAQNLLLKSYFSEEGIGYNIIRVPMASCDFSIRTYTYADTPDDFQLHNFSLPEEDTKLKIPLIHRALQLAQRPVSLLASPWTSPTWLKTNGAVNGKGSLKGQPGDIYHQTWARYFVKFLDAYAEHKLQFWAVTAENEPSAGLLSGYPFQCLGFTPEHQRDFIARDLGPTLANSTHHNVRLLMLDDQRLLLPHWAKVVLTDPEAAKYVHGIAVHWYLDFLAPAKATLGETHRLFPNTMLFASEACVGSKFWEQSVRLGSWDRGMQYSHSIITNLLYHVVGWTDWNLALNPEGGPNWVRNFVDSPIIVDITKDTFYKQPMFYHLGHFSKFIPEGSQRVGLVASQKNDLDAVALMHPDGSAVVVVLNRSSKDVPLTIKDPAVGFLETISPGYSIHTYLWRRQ
- RUN_DESCRIPTION: glucocerebrosidase activity in intact melanoma cells (4MU-b-glucoside, conduritol B-epoxide sensitive)
- Format: cell-based
- Design: the hydrolysis of 4MU-b-glucoside by cultured melanoma cells; endogenous in cells
- TEST_CONTEXT: intact melanoma cells; read-out: IC50 GLUCOCEREBROSIDASE
METRIC: pIC50
pIC50 here: minus log base 10 of the concentration, concentration in moles per litre.

So for `O=C(CCCC(=O)N1C[C@H](O)[C@@H](O)[C@H](O)[C@H]1CO)OC12CC3CC(CC(C3)C1)C2` , the logged pIC50 turned out to be 5.10

Moving on to the next compound.
So for `O=C(CCCC(=O)N1C[C@H](O)[C@@H](O)[C@H](O)[C@H]1CO)OCC12CC3CC(CC(C3)C1)C2` , the logged pIC50 turned out to be 5.30
